- TARGET_OR_TEST_SYSTEM: Pfs48/45 D1-2 (Plasmodium falciparum 3D7, UniProt Q8I6T1)
- Sequence (Q8I6T1 28-289): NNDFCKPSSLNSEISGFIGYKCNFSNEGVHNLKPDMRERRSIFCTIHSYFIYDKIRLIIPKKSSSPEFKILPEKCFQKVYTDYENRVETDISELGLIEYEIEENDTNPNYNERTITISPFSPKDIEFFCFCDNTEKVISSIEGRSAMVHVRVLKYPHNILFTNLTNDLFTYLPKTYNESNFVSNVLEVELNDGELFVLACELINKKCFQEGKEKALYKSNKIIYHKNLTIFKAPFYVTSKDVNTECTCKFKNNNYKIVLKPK
- EXPERIMENTAL_DETAILS: ELISA
- ASSAY_CONTEXT: both partners purified
OBSERVED_PROPERTY: binding result

Reference set, count: 4
RUPA-87 (antibody, V domains shown, human IgG1; source: recombinant human IgG1, 293T (Protein A purified) or GenScript) VH: QVQVVQSGAEVRKPGASVKVSCKTSGYTFIYYYIHWVRQAPGQGLEWLGWINPNSGGTKYAQQFQGRVTVTRDTSVSTAYMELNGLTSDDTAVYYCARVVAAEGYFDYWGQGTLLTVSS VL: DIQMTQSPSSVSASVGDRVTITCRASQGISGWLAWYQQKPGKAPKLLIYAASTLQSGVPSRFSGSGSGTDFTLTISSLQPDDFATYFCQQANSFPLTFGGGTKISLK :: binds
RUPA-155 (antibody, V domains shown, human IgG1; source: recombinant human IgG1, 293T (Protein A purified) or GenScript) VH: QVQLQQWGAGLLKPSETLSLTCAVEGDSLGDYYWSWIRQPPGKGLEWIGDINHSGTTNYIPSLKSRVTISVDSSRNQFSLRLNFVTAADTATYFCARRASGWYRQSRYTGWFDPWGQGTLVTVSS VL: EIVMTQSPATLSVSPGERATLSCRASHSINSNVAWYQQKPGQAPRLLIYGASTRATGIPARFSGSGSGTEFTLTISSLQTEDFAVYYCQQYNNWPGLSFGGGTKVEIK :: binds
RUPA-160 (antibody, V domains shown, human IgG1; source: recombinant human IgG1, 293T (Protein A purified) or GenScript) VH: QVQLVQSGAEVKKPGASVKASCKASGYTFDNFDIIWARQATGQGLEWMGWMNPNTGKKGYAQNLKDRVTMTRDSSISTAYLELSSLRSEDTAVYYCVRAVGSYYGSGGWFDPWGQGTLVTVSS VL: QSVLTQPPSASGTPGQRVTIACSGSSSNIGGNNVKWYQQLPGTAPKLVIYNNDERPPGVPDRVSGSKSGTSASLAISGVQSEDEADYYCATWDDSMKREVFGGGTKLTVL :: binds
RUPA-116 (antibody, V domains shown, human IgG1; source: recombinant human IgG1, 293T (Protein A purified) or GenScript) VH: QVQLQQWGAGLLKPSETLSLTCVVYGGSFSDYYWSWVRQPPGKGLEWIGEVNHSGTTNYNPSLKSRLTISVDTSKNQISLRLNSLTAADTAVYYCARRSSGYYRQSRYTGWFDPWGRGTLVTVSS VL: EIVMTQSPATLSVSPGERATLSCRASQSITSNLAWYQQKPGQAPRLLIYGASTRATGIPARFSGSGSGTEFTLTISSLQSDDFALYYCQQYNNWPGLTFGGGTKVEIK :: binds

*Q* GET /values?readout=binding result&item= RUPA-113 (antibody, V domains shown, human IgG1; source: recombinant human IgG1, 293T (Protein A purified) or GenScript) VH: QVQLVQSGAELKKPGASVKVSCKASGYTFTSHDITWVRQAPGQGLEWMGWMNPNTGDRGYARNFQGRLTLTRDMSISTAFMVLSSLRPEDTAVYYCTRGVGTYHGAGGWFDPWGQGTLVSVSS VL: QSVLTQPPSASETPGQRVTISCSGSSSNIGSNIVSWYQQLPGTAPKLLIYNNNQRPSGVPDRFSGSQSGTSASLAISGLQSEDEADYYCATWDDSLERGVFGGGTKLTVL
*A* binds
